# System: MCF-10A
# test name: Antiproliferative activity against human MCF-10A cells assessed as inhibition of cell growth incubated for 72 hrs by MTT assay
# Format: functional, cell-based
Provide the reported pIC50 of each item.
Give bare numbers, as −log10 of the molar value.

Some compounds with recorded pIC50:
[in] # lookup: pIC50 of "O=C1C(=O)N(Cc2cn(Cc3ccccc3)nn2)c2ccccc21"
[out] 5.74

[in] Further, for "Cc1ccc2c(c1)C(=O)C(=O)N2Cc1cn(Cc2ccccc2)nn1" ?
[out] 5.81

[in] Further, for "CC(C)[C@@H]1CC[C@@H](C)C[C@@H]1n1cc(CN2C(=O)C(=O)c3ccccc32)nn1" ?
[out] 5.97

Working through the 3 compounds below one at a time, give pIC50 for each.
1. O=C1N(Cc2cn(Cc3ccccc3)nn2)c2ccc(Br)cc2[C@@]1(O)c1ccccc1
2. O=C1N(Cc2cn(Cc3ccccc3)nn2)c2ccc(Br)cc2[C@]1(O)c1ccccc1
3. O=C1N(Cc2cn(Cc3ccccc3)nn2)c2ccccc2[C@@]1(O)c1ccc2ccccc2c1

[out]
1. 5.96
2. 5.99
3. 5.88
